# tested.target: human DLL3 protein expressed on CHO-K1 recombinant cells (human DLL3 extracellular segment fused to EpCAM transmembrane and intracellular regions) (human) (UniProt Q9NYJ7)
# Sequence (Q9NYJ7 other isoform, or with tags, fused parts or gaps limits assumed): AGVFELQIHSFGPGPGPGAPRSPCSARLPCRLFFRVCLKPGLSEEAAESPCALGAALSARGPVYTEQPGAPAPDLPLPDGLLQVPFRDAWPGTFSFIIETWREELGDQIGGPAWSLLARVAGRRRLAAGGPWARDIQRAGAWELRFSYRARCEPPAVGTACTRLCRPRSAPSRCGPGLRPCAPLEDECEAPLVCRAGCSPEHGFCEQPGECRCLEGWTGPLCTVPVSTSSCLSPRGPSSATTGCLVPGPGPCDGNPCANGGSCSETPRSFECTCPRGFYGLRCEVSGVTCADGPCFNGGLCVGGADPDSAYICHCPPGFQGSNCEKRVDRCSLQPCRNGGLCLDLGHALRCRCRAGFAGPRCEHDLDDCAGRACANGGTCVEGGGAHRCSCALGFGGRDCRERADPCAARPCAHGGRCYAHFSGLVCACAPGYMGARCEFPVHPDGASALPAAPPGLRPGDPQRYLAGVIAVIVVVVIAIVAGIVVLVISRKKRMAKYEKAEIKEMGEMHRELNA
# protocol.details: FACS, CHO-K1 hDLL3 cells, 0.00128 nM antibody
value.type: MFI (MFI)
Give the value in MFI but do not write MFI after it.

GET /value?item= Hab015VL4VH6a-hFc (scFv, part only; not given: scFv linker and human IgG1 Fc, V domains shown, not shown: another chain or arm of the molecule; a dimerising Fc or GST; small tags and cut ends) VL: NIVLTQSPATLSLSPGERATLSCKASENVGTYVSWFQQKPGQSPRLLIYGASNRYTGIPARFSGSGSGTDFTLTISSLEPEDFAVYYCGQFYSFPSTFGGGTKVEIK VH: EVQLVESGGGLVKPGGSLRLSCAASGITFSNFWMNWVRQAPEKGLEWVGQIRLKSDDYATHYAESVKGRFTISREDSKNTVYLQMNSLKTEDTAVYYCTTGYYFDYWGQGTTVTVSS &field=MFI returns 120

GET /value?item= Hab008L1H5-hFc (scFv, part only; not given: VL-VH linker and human IgG1 Fc, V domains shown, not shown: another chain or arm of the molecule; a dimerising Fc or GST; small tags and cut ends) VL: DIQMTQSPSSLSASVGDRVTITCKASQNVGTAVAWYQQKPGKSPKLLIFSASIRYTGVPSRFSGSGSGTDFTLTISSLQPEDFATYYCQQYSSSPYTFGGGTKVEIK VH: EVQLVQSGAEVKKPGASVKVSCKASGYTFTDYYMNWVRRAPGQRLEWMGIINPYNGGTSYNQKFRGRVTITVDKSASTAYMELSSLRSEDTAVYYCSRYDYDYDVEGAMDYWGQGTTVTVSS &field=MFI returns 103

GET /value?item= Hab008L3H5-hFc (scFv, part only; not given: scFv linker and human IgG1 Fc, V domains shown, not shown: another chain or arm of the molecule; a dimerising Fc or GST; small tags and cut ends) VL: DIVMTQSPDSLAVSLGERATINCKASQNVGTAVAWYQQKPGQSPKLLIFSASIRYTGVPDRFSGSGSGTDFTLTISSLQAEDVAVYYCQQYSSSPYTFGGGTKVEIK VH: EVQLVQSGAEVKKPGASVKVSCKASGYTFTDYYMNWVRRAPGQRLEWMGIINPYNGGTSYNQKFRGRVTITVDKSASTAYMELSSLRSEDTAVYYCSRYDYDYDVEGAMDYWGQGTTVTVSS &field=MFI returns 100
